Below: a set of entries, each annotated with reported IC50.
- Tested on: normal human neonatal foreskin epidermal keratinocytes (NHEK-F)
- method notes: Cell proliferation inhibition test
- Assay type: cell-based
- stated conditions: Keratinocyte, 72 h, NHEK-F cells, three days incubation, ATPlite or CellTiterGlo, read-out: IC50 (concentration of the compound at which the cell count is reduced by 50%)
endpoint name: IC50

> print(dat)
                                query.smiles                       experimental.system  experimental.value
 1  Cn1ccc2cc(Nc3ncc(C4CC4)cc3C(=O)O)cc(CCC3CCCCC3)c21  normal human neonatal foreskin epidermal keratinocytes (NHEK-F)             ≤ 10 nM
 2  O=C(O)c1cc(C2CC2)cnc1Nc1ccc2[nH]cc(-c3ccccc3)c2c1  normal human neonatal foreskin epidermal keratinocytes (NHEK-F)      100 to 1000 nM
 3  O=C(O)c1cc(Cl)ccc1Nc1ccc2c(c1)cc(CO)n2Cc1ccccc1  normal human neonatal foreskin epidermal keratinocytes (NHEK-F)        10 to 100 nM
 4  CS(=O)(=O)NC(=O)c1cc(C2CC2)cnc1Nc1ccc2c(ccn2Cc2ccccc2)c1  normal human neonatal foreskin epidermal keratinocytes (NHEK-F)        10 to 100 nM
 5  CCn1ccc2cc(Nc3ncc(C4CC4)cc3C(=O)O)cc(-c3ccccc3)c21  normal human neonatal foreskin epidermal keratinocytes (NHEK-F)             ≤ 10 nM
 6  CC(C)Cn1ccc2c(Nc3ncc(C4CC4)cc3C(=O)O)cccc21  normal human neonatal foreskin epidermal keratinocytes (NHEK-F)             ≤ 10 nM
 7  COCCCc1cccc(Cn2ccc3cc(Nc4ncc(C5CC5)cc4C(=O)O)ccc32)c1  normal human neonatal foreskin epidermal keratinocytes (NHEK-F)             ≤ 10 nM
 8  Cn1ccc2cc(Nc3ncc(C4CC4)cc3C(=O)O)cc(-c3cccc(F)c3F)c21  normal human neonatal foreskin epidermal keratinocytes (NHEK-F)             ≤ 10 nM
 9  O=C(O)c1cc(C(F)(F)F)ccc1Nc1ccc2c(ccn2Cc2ccccc2)c1  normal human neonatal foreskin epidermal keratinocytes (NHEK-F)             ≤ 10 nM
10  CCn1c2c(c3cc(Nc4ncc(C5CC5)cc4C(=O)O)ccc31)CCCC2  normal human neonatal foreskin epidermal keratinocytes (NHEK-F)      100 to 1000 nM
11  COc1cccc(-c2cc(Nc3ncc(C4CC4)cc3C(=O)O)cc3ccn(C)c23)c1  normal human neonatal foreskin epidermal keratinocytes (NHEK-F)             ≤ 10 nM
12  CC(C)n1ccc2cc(Nc3ccc(C4CC4)cc3C(=O)O)ccc21  normal human neonatal foreskin epidermal keratinocytes (NHEK-F)             ≤ 10 nM
13  O=C(O)c1cc(C2CC2)cnc1Nc1ccc2c(ccn2CCCC(F)(F)F)c1  normal human neonatal foreskin epidermal keratinocytes (NHEK-F)        10 to 100 nM
14  O=C(O)c1nc(C2CC2)cnc1Nc1ccc2c(ccn2Cc2ccccc2)c1  normal human neonatal foreskin epidermal keratinocytes (NHEK-F)             ≤ 10 nM
15  CCOCCCc1cc(Nc2ncc(C3CC3)cc2C(=O)O)cc2ccn(C)c12  normal human neonatal foreskin epidermal keratinocytes (NHEK-F)        10 to 100 nM
16  CC(C)Cn1ccc2cc(Nc3ncc(C4CC4)cc3C(=O)O)cnc21  normal human neonatal foreskin epidermal keratinocytes (NHEK-F)        10 to 100 nM
17  CCCCCCn1ccc2cc(Nc3ncc(C4CC4)cc3C(=O)O)ccc21  normal human neonatal foreskin epidermal keratinocytes (NHEK-F)             ≤ 10 nM
18  CCCCCCCn1ccc2cc(Nc3ncc(C4CC4)cc3C(=O)O)ccc21  normal human neonatal foreskin epidermal keratinocytes (NHEK-F)        10 to 100 nM
